Provenance of the data: ChEMBL document CHEMBL1151067

Kindly state Conversion rate for each of the entries shown.
species on record: Rattus norvegicus; test: Stereoselectivity in enzymic hydrolysis by normal rat intestine extracts; assay type: functional
Answers are plain numbers, in %.

Solved cases below.
CCOC(=O)C(C)Oc1ccccc1 (centres undefined) ... 5
CCOC(=O)C(Cc1ccccc1)NC(C)=O (centres undefined) ... 37.3
CCOC(=O)C(C)c1ccccc1 (centres undefined) ... 5

--- query ---
In plain terms, CCOC(=O)C(NC=O)c1ccccc1 (centres undefined) has a documented Conversion rate of 1.4

---

Can you tell me Conversion rate for the items I'm about to list?
tested on: NRK-49F; test: Stereoselectivity in enzymic hydrolysis by rat cancer NRK49F cells; format: functional
# include the unit after the value

In the examples that follow, each entry is paired with its recorded Conversion rate.
CCOC(=O)C(C)Oc1ccccc1 (centres undefined) ... 4.5%
CCOC(=O)C(NC=O)c1ccccc1 (centres undefined) ... 2.2%
CCOC(=O)C(Cc1ccccc1)NC(C)=O (centres undefined) ... 35.1%

Now, please, on to the next compound.
Observed Conversion rate, NRK-49F, CCOC(=O)C(C)c1ccccc1 (centres undefined) : 8.2%

---

test system: IA-XsSBR cell line; experiment: Stereoselectivity in enzymic hydrolysis by rat cancer IA-XsSBR cells; assay type: functional
Measure: Conversion rate (%)
Give bare numbers, in %.

Some entries whose results are on file:
CCOC(=O)C(C)Oc1ccccc1 (centres undefined) ... 12.2
CCOC(=O)C(NC=O)c1ccccc1 (centres undefined) ... 1.3
CCOC(=O)C(C)c1ccccc1 (centres undefined) ... 1.4

Continue with the molecule presented below.
Here CCOC(=O)C(Cc1ccccc1)NC(C)=O (centres undefined) was tested on IA-XsSBR cell line, and its Conversion rate came to 30.5

---

organism: Rattus norvegicus; test: Stereoselectivity in enzymic hydrolysis by normal rat liver extracts; format: functional
Measure: Conversion rate (%)
Give bare numbers, in %.

Would you please look over these solved cases?
CCOC(=O)C(Cc1ccccc1)NC(C)=O (centres undefined) ... 48.2
CCOC(=O)C(NC=O)c1ccccc1 (centres undefined) ... 2.7
CCOC(=O)C(C)c1ccccc1 (centres undefined) ... 11.5

We next turn to a different compound, shown below.
Conversion rate reported for this compound CCOC(=O)C(C)Oc1ccccc1 (centres undefined) : 52.5

---

test system: CCRF S-180; experiment: Stereoselectivity in enzymic hydrolysis by mouse sarcoma S180 cells; assay type: functional
Conversion rate vs 10%: at or above is 1, below is 0.

The examples below pair each entry with its known result.
CCOC(=O)C(Cc1ccccc1)NC(C)=O (stereo not drawn) ... 1
CCOC(=O)C(O)c1ccccc1 (stereo not drawn) ... 1

hey, is Conversion rate for this one >= 10%? CCOC(=O)C(OC)c1ccccc1 (stereo not drawn)
0

API: above_or_equal(metric=Conversion rate, cutoff=10%) for item CCOC(=O)C(NC=O)c1ccccc1 (stereo not drawn)
0

---

What Conversion rate was measured for each of the following?
organism: Rattus norvegicus; assay: Stereoselectivity in enzymic hydrolysis by normal rat kidney extracts; assay type: functional
One number for each entry, in %.

Worked cases, answers included:
CCOC(=O)C(C)c1ccccc1 (centres undefined) ... 11.2
CCOC(=O)C(C)Oc1ccccc1 (centres undefined) ... 53
CCOC(=O)C(Cc1ccccc1)NC(C)=O (centres undefined) ... 23.2

Conversion rate recorded for this compound, CCOC(=O)C(NC=O)c1ccccc1 (centres undefined) , is 7.6

---

system: CCRF S-180; assay: Stereoselectivity in enzymic hydrolysis by mouse sarcoma S180 cells; format: functional
Measure: Conversion rate (%)
One number for each entry, in %.

See these solved cases before continuing.
CC(C(=O)OCCC1CCCCC1)c1ccccc1 (centres undefined) ... 6.1
CCCCCCCCOC(=O)C(C)c1ccccc1 (centres undefined) ... 11
CCOC(=O)C(C)Oc1ccccc1 (centres undefined) ... 38.9

Let's switch to this compound now.
Given item CCOC(=O)C(NC(C)=O)c1ccccc1 (centres undefined) , the value recorded as its Conversion rate is 4.3
